Experiment: Human hepatocyte clearance
Type: in vitro ADME
Details: hepatocytes, with ABT, read-out: Human Hepatocyte Clearance ABT Intrinsic Clearance
Assay metric: hepatocyte CLint

INSERT INTO results (molecule, result) VALUES
  ('COc1ccc(C(=O)N(CC(C)(C)C)c2cccc(C)n2)c(N2CCC(c3cc4ccc([C@@H](CC(=O)O)C5CC5)cc4o3)CC2)c1 [compound 1]', '< 1.8 µL/min/1e6 cells');

* * *

Experiment: Dog hepatocyte clearance
Type: in vitro ADME
Details: hepatocytes, with ABT, read-out: Dog Hepatocyte Clearance ABT Intrinsic Clearance
Assay metric: hepatocyte CLint (µL/min/1e6 cells)

INSERT INTO measurements (smiles_text, assay_metric, unit_string, quantitative_result) VALUES
  ('COc1ccc(C(=O)N(CC(C)(C)C)c2cccc(C)n2)c(N2CCC(c3cc4ccc([C@@H](CC(=O)O)C5CC5)cc4o3)CC2)c1', 'hepatocyte CLint', 'µL/min/1e6 cells', 19.3);
